Molecular target: HCV polymerase H544 1a 3X (UniProt P27958)
Construct: fused on or other part: 6 His tag at the C-terminus, for the BK (1b) enzyme
Experiment: Assay of enzyme (HCV polymerase) inhibitory activity, H544 1a 3X
Type: biochemical
Conditions: 25° C., 90 min, [5,6-3H]UTP incorporation, read-out: H544 1a 3X IC50
pIC50: −log10 of the molar value. Structures can show the parent of a compound that is named as a salt.

{"molecule": "CN(CC(=O)N1CCCCC1)C(=O)Cn1c(-c2ccc(OCc3ccccc3)cc2)c(C2CCCCC2)c2sc(C(=O)O)cc21", "pIC50": "> 7.00"}
{"molecule": "O=C(O)c1cc2c(s1)c(C1CCCCC1)c(-c1ccc(OCc3ccccc3)cc1)n2CCN1CCOCC1", "pIC50": "6.00 to 7.00"}
{"molecule": "O=C(O)c1cc2c(s1)c(C1CCCCC1)c(-c1ccc(OCc3ccccc3)cc1)n2CC(=O)N1CCN(C2CCCCC2)CC1 [Example 52, hydrochloride]", "pIC50": "> 7.00"}
{"molecule": "COc1ccc(-c2c(C3CCCCC3)c3sc(C(=O)O)cc3n2CC(=O)N2CCC(N(C)C)CC2)cc1", "pIC50": "> 7.00"}
{"molecule": "Cn1c(-c2ccc(OCc3cc(S(C)(=O)=O)ccc3N3CCOCC3)cc2)c(C2CCCCC2)c2sc(C(=O)O)cc21 [Example 23, hydrochloride]", "pIC50": "> 7.00"}
{"molecule": "COc1ccc(-c2c(C3CCCCC3)c3sc(C(=O)O)cc3n2CC(=O)N(C)C)cc1", "pIC50": "6.00 to 7.00"}
{"molecule": "Cn1c(-c2ccc(OCc3ccc(N4CCCC4=O)cc3N3CCOCC3)cc2)c(C2CCCCC2)c2sc(C(=O)O)cc21 [Example 34, hydrochloride]", "pIC50": "> 7.00"}
{"molecule": "CN(C)C(=O)Cn1c(-c2ccccc2OCc2ccccc2)c(C2CCCCC2)c2sc(C(=O)O)cc21", "pIC50": "6.00 to 7.00"}

* * *

Biological target: HCV polymerase H544 1b 3X (Hepatitis C virus genotype 1b, UniProt P26663)
Construct: a region encoding NS5B (J Virol 1991 March, 65(3), 1105-13, 544 amino acids after deletion of 47 amino acids on the C-terminal); 6 His (C); made in house; host or cells: Escherichia coli
Sequence (P26663 2420-2963): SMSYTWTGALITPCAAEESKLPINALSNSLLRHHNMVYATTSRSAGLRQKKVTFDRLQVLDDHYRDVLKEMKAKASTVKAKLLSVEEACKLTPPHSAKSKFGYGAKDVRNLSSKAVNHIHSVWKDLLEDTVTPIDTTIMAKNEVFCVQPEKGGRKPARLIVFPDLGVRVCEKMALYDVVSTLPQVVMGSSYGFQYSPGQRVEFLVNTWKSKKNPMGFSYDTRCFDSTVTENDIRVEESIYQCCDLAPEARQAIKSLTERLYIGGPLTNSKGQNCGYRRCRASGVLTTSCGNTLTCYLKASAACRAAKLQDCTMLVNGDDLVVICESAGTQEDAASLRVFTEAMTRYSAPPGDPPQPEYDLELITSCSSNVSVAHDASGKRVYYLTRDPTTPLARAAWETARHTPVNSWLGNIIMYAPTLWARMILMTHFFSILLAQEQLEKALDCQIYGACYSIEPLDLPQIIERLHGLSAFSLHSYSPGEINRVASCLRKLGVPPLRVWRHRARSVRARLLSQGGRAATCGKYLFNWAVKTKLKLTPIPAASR
Assay: Assay of enzyme (HCV polymerase) inhibitory activity, H544 1b 3X
Format: biochemical, HCV BK strain
Structures can show the parent of a compound that is named as a salt.

{"molecule": "COCCn1c(-c2ccc(OCc3ccccc3)cc2)c(C2CCCCC2)c2sc(C(=O)O)cc21 [Example 49]", "IC50": "100 to 1000 nM"}
{"molecule": "CN(C)CC(=O)N(C)c1ccc(N2CCOCC2)c(COc2ccc(-c3c(C4CCCCC4)c4sc(C(=O)O)cc4n3C)cc2)c1 [Example 43, dihydrochloride]", "IC50": "< 100 nM"}
{"molecule": "O=C(O)c1cc2c(s1)c(C1CCCCC1)c(-c1ccc(OCc3ccccc3)cc1)n2Cc1ccccc1 [Example 45]", "IC50": "100 to 1000 nM"}
{"molecule": "COc1ccc(-c2c(C3CCCCC3)c3sc(C(=O)O)cc3n2CC(=O)NCc2ccccc2)cc1 [Example 32]", "IC50": "< 100 nM"}
{"molecule": "O=C(O)c1cc2nc(-c3ccc(OCc4cc(N5CCCC5=O)ccc4-c4ccc(Cl)cc4)cc3)n(C3CCCCC3)c2s1 [Example 3, hydrochloride]", "IC50": "< 100 nM"}
{"molecule": "Cn1c(-c2ccc(OCc3cc(NC(=O)CN4CCOCC4)ccc3N3CCOCC3)cc2)c(C2CCCCC2)c2sc(C(=O)O)cc21 [Example 41, dihydrochloride]", "IC50": "< 100 nM"}
{"molecule": "CN(CCN1CCOCC1)CCn1c(-c2ccc(OCc3ccccc3)cc2)c(C2CCCCC2)c2sc(C(=O)O)cc21 [Example 58, dihydrochloride]", "IC50": "100 to 1000 nM"}
{"molecule": "CN(C)CC(=O)Nc1ccc(N2CCOCC2)c(COc2ccc(-c3c(C4CCCCC4)c4sc(C(=O)O)cc4n3C)cc2)c1 [Example 40, dihydrochloride]", "IC50": "< 100 nM"}
{"molecule": "CN(CC(=O)N1CCCCC1)C(=O)Cn1c(-c2ccc(OCc3ccccc3)cc2)c(C2CCCCC2)c2sc(C(=O)O)cc21 [Example 50]", "IC50": "< 100 nM"}
{"molecule": "Cn1c(-c2ccc(OCc3cc(N4CCCC4=O)ccc3N3CCN(S(C)(=O)=O)CC3)cc2)c(C2CCCCC2)c2sc(C(=O)O)cc21 [Example 18, hydrochloride]", "IC50": "< 100 nM"}
{"molecule": "O=C(O)c1cc2nc(-c3ccc(OCc4cc(N5CCCC5=O)ccc4N4CCOCC4)cc3)n(C3CCCCC3)c2s1 [Example 5]", "IC50": "100 to 1000 nM"}
